Below, each entry is listed with its recorded Potency.
# Tested system: Lysosomal alpha-glucosidase (Homo sapiens) (UniProt P10253)
# Experimental details: qHTS Assay for Activators of Human alpha-Glucosidase as a Potential Chaperone Treatment of Pompe Disease; note: potency is the fitted concentration of half-maximal effect; nearly all actives have a fitted effect of over 80% in size
# Condition notes: purified enzyme, 4-MU-alpha-glucoside fluorescence, 20 min; series mostly up to 76.9 µM
Out of some 200,000 compounds screened, about 720 (0.36%) were called active. Not shown: some 8% with an inconclusive outcome. This is one part of the list.

For orientation, consider the following solved cases.
structure_as_smiles=Cc1[nH]nc2c1-c1nc3ccccc3nc1C(C)(C)C2 experimental_value="28.2 µM (active)"
structure_as_smiles=CCOP(=O)(OCC)c1nc(-c2cccc3ccccc23)oc1NCc1ccc(OC)cc1 experimental_value="35.5 µM (active)"
structure_as_smiles=Cc1cc(=O)oc2cc(OC(=O)CCN3C(=O)c4ccccc4C3=O)ccc12 experimental_value="25.1 µM (active)"
structure_as_smiles=Cc1cc(NCCCn2ccnc2)n2c(nc3ccccc32)c1C#N experimental_value="35.5 µM (active)"
structure_as_smiles=CN(C)C(=O)COc1ccc2cc(-c3ccccc3)c(=O)oc2c1 experimental_value="35.5 µM (active)"
structure_as_smiles=Cc1cc(=O)oc2cc(OCc3ccc(C(=O)N4CCN(c5ccccc5)CC4)cc3)ccc12 experimental_value="39.8 µM (active)"
structure_as_smiles=COP(=O)(OC)c1nc(-c2cccc3ccccc23)oc1NCc1ccccc1 experimental_value="35.5 µM (active)"
structure_as_smiles=COc1ccc(CNc2oc(-c3cccc4ccccc34)nc2C#N)cc1 experimental_value="28.2 µM (active)"
structure_as_smiles=CC(=O)Oc1ccc2c(C)cc(=O)oc2c1 experimental_value="35.5 µM (active)"
structure_as_smiles=CCCOc1ccc2cc(-c3ccccn3)c(=O)oc2c1 experimental_value="39.8 µM (active)"

Next:
-- ask State Potency on Lysosomal alpha-glucosidase (Homo sapiens) (UniProt P10253). Entry: COCCNc1cc(C)c(C#N)c2nc3ccccc3n12
-- reply 35.5 µM (active)
